// data source = patent US10189838B2

# System: RSV Long strain
# testDetails: Viral cytopathic effect (CPE) assay, RSV Long strain
# Assay type: cell-based, Respiratory Syncytial Virus
# runParameters: human respiratory syncytial virus, 144 h, cell viability after 6 days (Cell Counting kit-8)
# Protocol: EC50: the concentration of a compound where 50% of its maximal protection effect against viral induced CPE is observed LongStrain: an A subtype RSV strain obtained from ATCC with catalog number VR-26 To measure anti-RSV activity of compounds, 96-well plates are seeded with 6×10^3 cells per well in Dulbecco's modified Eagle's medium (DMEM) containing 10% fetal bovine serum (FBS). […] The viability of cells is assessed after 6 days using Cell Counting kit-8 (Dojindo Molecular Technologies). […]
measurementName: pEC50
The value called pEC50 is obtained by taking minus log10 of the concentration in mol/L.

Below: 3 molecules and their reported pEC50.
molecule	experimentalValue
Cc1cnc2c(c1)cc(CN1C(=O)C3(CC3)c3ccncc31)n2CCS(C)(=O)=O [Example 4-4]	7.19
O=C1N(Cc2cc3nc(Cl)ccc3n2CCS(=O)(=O)C2CC2)c2cnccc2C12CC2 [Example 4-14]	7.14
NC(=O)CCCn1c(CN2C(=O)C3(CC3)c3ccncc32)cc2cc(Cl)ccc21 [Example 18-3]	7.96

**Q:** Need pEC50 of O=C1N(Cc2cc3cc(Cl)ccc3n2CCCS(=O)(=O)N2CCCC2)c2cnccc2C12CC2 [Example 7-5] , thanks.
**A:** 7.70
